Test system: DRIVER-selected RNA biosensor (aptazyme) pool
method-summary: maximum fold change of ribozyme cleavage across biosensor pool versus no-compound control; higher = stronger biosensor response (ligand inhibits cleavage)
applied-conditions: 10 µM
Please note: label 1 applies when maximum fold change is 3 or greater, and label 0 applies otherwise.

### Prompt For this compound, is measured maximum fold change 3 or higher? O=C(c1ccccc1O)N1CCOCC1
### Response label 0

### Prompt For this compound, is measured maximum fold change 3 or higher? CC(C)c1ccc(C2c3c(-c4ccccc4O)n[nH]c3C(=O)N2CCCO)cc1 (stereo unspecified)
### Response label 0

### Prompt For this compound, is measured maximum fold change 3 or higher? Cn1c(-c2ccc3c(c2)OCO3)cnc1NCc1cc(Br)ccc1F
### Response label 1

### Prompt For this compound, is measured maximum fold change 3 or higher? CC(=O)N1N=C(c2c(-c3ccccc3)c3cc(Cl)ccc3[nH]c2=O)CC1c1ccco1 (stereo unspecified)
### Response label 1

### Prompt For this compound, is measured maximum fold change 3 or higher? O=C1N=c2sc(nn2C(=N)/C/1=Cc1c[nH]c2c1cccc2)N1CCCC1
### Response label 1

### Prompt For this compound, is measured maximum fold change 3 or higher? CCOC(=O)c1c(C)c(-c2ccccc2)n(CC(=O)NCCN(C)C)c1C
### Response label 0

### Prompt For this compound, is measured maximum fold change 3 or higher? C=C(C)Cn1c(NCCCN2CCOCC2)nc2c1c(=O)[nH]c(=O)n2C
### Response label 0

### Prompt For this compound, is measured maximum fold change 3 or higher? Cc1ccccc1-c1nnc(SCC(=O)N2CCC(C)CC2)o1
### Response label 0

### Prompt For this compound, is measured maximum fold change 3 or higher? CCOCCCNC(=O)c1cc(C)nn1-c1ccccc1
### Response label 0

### Prompt For this compound, is measured maximum fold change 3 or higher? CCNC(=S)N1CCN=C1Nc1nc(C)cc(C)n1
### Response label 0

### Prompt For this compound, is measured maximum fold change 3 or higher? Cc1cc2cc(CNC(=O)C3CCCC3)ccc2[nH]1
### Response label 1

### Prompt For this compound, is measured maximum fold change 3 or higher? CC1CCC(NC(=O)c2cc(C3CC3)n[nH]2)CC1 (stereo unspecified)
### Response label 0

### Prompt For this compound, is measured maximum fold change 3 or higher? Cc1ccc(CS(=O)Cc2ccc(C(=O)NC(C)C)o2)cc1 (stereo unspecified)
### Response label 0

### Prompt For this compound, is measured maximum fold change 3 or higher? CCOc1ccc(CCNC2=NS(=O)(=O)C(c3ccc(C)cc3)=C2C)cc1OCC
### Response label 1

### Prompt For this compound, is measured maximum fold change 3 or higher? Cc1[nH]c2ccccc2c1/C=C1\C(=N)N2N=C(N3CCC(C)CC3)SC2=NC1=O
### Response label 1

### Prompt For this compound, is measured maximum fold change 3 or higher? O=C(CSc1nnc(-c2ccc(Cl)s2)o1)N1CCOCC1
### Response label 1

====

Tested on: DRIVER-selected RNA biosensor (aptazyme) pool
method-summary: maximum fold change of ribozyme cleavage across biosensor pool versus no-compound control; higher = stronger biosensor response (ligand inhibits cleavage)
applied-conditions: 10 µM
parameter: maximum fold change
Number only, no unit.

### Prompt Which measured maximum fold change value corresponds to CCOc1ccc(CCNC(=O)Cn2ccc3cc(S(=O)(=O)N4CCCC4)ccc32)cc1 ?
### Response 3.07

### Prompt Which measured maximum fold change value corresponds to Cc1c(C(=O)Nc2ccncc2)sc2nc(-c3ccccc3)cn12 ?
### Response 3.12

### Prompt Which measured maximum fold change value corresponds to O=C1Nc2cc(C(=O)N3CCN(c4ccco4)CC3)ccc2N/C1=C\C(=O)c1ccc(Cl)cc1 ?
### Response 5.38

### Prompt Which measured maximum fold change value corresponds to CNc1cnn(C23CC4CC(CC(CC(=O)O)(C4)C2)C3)c(=O)c1Cl ?
### Response 4.5

### Prompt Which measured maximum fold change value corresponds to COc1cccc(-c2nc3sc4c(c3c(=O)n2CC(=O)NC2CCCCC2)CCCC4)c1 ?
### Response 1.74

### Prompt Which measured maximum fold change value corresponds to Cc1cc(NC(=O)CSc2nc3ncccc3c(=O)n2CCc2ccccc2)[nH]n1 ?
### Response 3.45

### Prompt Which measured maximum fold change value corresponds to COc1ccc(S(=O)(=O)N2CCCN(CC(=O)C(C)(C)C)CC2)cc1 ?
### Response 2.33

### Prompt Which measured maximum fold change value corresponds to CC(NC(=O)/C=C/c1ccccc1Cl)c1ccccc1 (stereo not given) ?
### Response 2.1

### Prompt Which measured maximum fold change value corresponds to COc1ccc(cc1)/C=CC(=O)NCC(=O)O ?
### Response 3.29

### Prompt Which measured maximum fold change value corresponds to CCCCNCc1c(C(=O)O)c(C)n(Cc2cc(C)ccc2C)c1C ?
### Response 2.79

### Prompt Which measured maximum fold change value corresponds to Cc1ccc(S(=O)(=O)NC(CC(=O)O)c2cccs2)cc1 (stereo not given) ?
### Response 2.72

### Prompt Which measured maximum fold change value corresponds to COc1ccc(OC)c(C2C3=C(CC(C)(C)CC3=O)OC3=C2C(=O)CC(C)(C)C3)c1 ?
### Response 2.36

### Prompt Which measured maximum fold change value corresponds to O=C(CCNC(=O)Cn1cnc2sc3c(c2c1=O)CCCC3)NCC1CCCO1 (stereo not given) ?
### Response 3.04

### Prompt Which measured maximum fold change value corresponds to O=C(NCc1ccc2c(c1)OCO2)c1cc(-c2ccc(Cl)cc2)n[nH]1 ?
### Response 3.13

### Prompt Which measured maximum fold change value corresponds to Cc1oc(-c2ccccc2F)nc1CS(=O)(=O)CC(=O)N1CCC(Cc2ccccc2)CC1 ?
### Response 4.04

### Prompt Which measured maximum fold change value corresponds to CCOc1ccc(S(=O)(=O)N2CCN(Cc3ccccc3)CC2)c2cccnc12 ?
### Response 5.08

### Prompt Which measured maximum fold change value corresponds to CN(C)CCNC(=O)CCn1c(=O)c2cccn2c2cccnc21 ?
### Response 3.34

### Prompt Which measured maximum fold change value corresponds to c1cc(-c2nc3cc(Oc4ccc5[nH]c(-c6ccncc6)nc5c4)ccc3[nH]2)ccn1 ?
### Response 14.3

### Prompt Which measured maximum fold change value corresponds to CCOC(=O)c1cnc2c(C)cc(Cl)cc2c1NCCCO ?
### Response 9.37

### Prompt Which measured maximum fold change value corresponds to COc1ccccc1/C=C1N=C(c2ccc(Br)cc2)OC1=O ?
### Response 2.7

### Prompt Which measured maximum fold change value corresponds to CCOC(=O)c1cc(-c2ccc(C)cc2)n(CC(=O)NC(C)CC)c1C (stereo not given) ?
### Response 2.38

### Prompt Which measured maximum fold change value corresponds to COc1ccc(S(=O)Cc2ccc(C(=O)NC3CC3)o2)cc1 (stereo not given) ?
### Response 2.4

### Prompt Which measured maximum fold change value corresponds to CCOC(=O)N1CCN(C(=O)C2=C(C)C(=O)OC23CCCCC3)CC1 ?
### Response 4.06

### Prompt Which measured maximum fold change value corresponds to COc1ccc(C(=O)/C=C2\Nc3ccc(C(=O)NCc4cccc(OC)c4)cc3NC2=O)cc1 ?
### Response 7.89

### Prompt Which measured maximum fold change value corresponds to C=Cc1ccc(Cn2c(C)c(CNCCc3ccccc3)c(C(=O)O)c2C)cc1 ?
### Response 2.07

### Prompt Which measured maximum fold change value corresponds to Cc1oc(-c2ccccc2F)nc1CS(=O)(=O)CC(=O)NC1CCCC(C)C1C (stereo not given) ?
### Response 4.66

### Prompt Which measured maximum fold change value corresponds to COc1ccc(-c2cc(-c3nc4c5c(ncn4n3)CCC5)n[nH]2)cc1 ?
### Response 1.38

### Prompt Which measured maximum fold change value corresponds to CCN1CCCC1CNC(=O)CS(=O)(=O)Cc1nc(-c2ccc(C)cc2)oc1C (stereo not given) ?
### Response 2.2

### Prompt Which measured maximum fold change value corresponds to CS(=O)(=O)c1ccc2nc(NC(=O)c3cc4ccccc4o3)sc2c1 ?
### Response 7.28

### Prompt Which measured maximum fold change value corresponds to Cc1nn2c(-c3ccncc3)nnc2c2ccccc12 ?
### Response 10.8

### Prompt Which measured maximum fold change value corresponds to O=C(Cc1cn(Cc2cccc(Cl)c2)c2ccccc12)N1CCCC1 ?
### Response 3.3

### Prompt Which measured maximum fold change value corresponds to CCOC(=O)c1ccc(-c2sc3nc(N4CCOCC4)c4c(c3c2N)CC(C)(C)OC4)o1 ?
### Response 2.03

### Prompt Which measured maximum fold change value corresponds to O=C(c1cc(-c2ccccc2)n[nH]1)N1CCn2c1nc1ccccc12 ?
### Response 5.17

### Prompt Which measured maximum fold change value corresponds to CCOC(=O)c1sc2nc(C)nc(NCc3ccccc3OC)c2c1C ?
### Response 4.59

### Prompt Which measured maximum fold change value corresponds to Cc1cccc(-c2nc3n(n2)C(c2ccccc2Cl)C2=C(CC(C)(C)CC2=O)N3)c1 (stereo not given) ?
### Response 1.83
